# Tested on: MS2 coat protein
# Protocol description: apparent KD of MS2 coat protein; designed switch direction (-1 OFF switch, 1 ON switch): 1; higher = weaker reporter binding
# Stated conditions: input ligand: FMN 200 uM
Entries and their measured apparent KD of MS2 coat protein follow.

Record sequence | apparent KD of MS2 coat protein
GGCCUCUGUCAAGGAUAUGCUACCGUUUCGGUAGCAGAAGGUGAUCACAUGAGGAUCACCCAUGUUUAGGCCCUCUGGCCCGCC (Eterna round: R96, puzzle: Same State NG 1) | 0.114 µM
AGCUAUUAAUCAGGAUAUGGUCACAUGAGGAUCACCCAUGUAACGAUGAUAUAAUGUGGUCAAGACUAGAAGGGAUUGCUAACA [SameState NG2 #66] (Eterna round: R96, puzzle: Same State NG 2) | 0.169 µM
GUGGUCAGACAUGAGGAUCACCCAUGUGGAAUAAAUAACGUACAGGAUAUGGAAUAUAGGAUAUACUAGAAGGGUAGAUUGGUG (Eterna round: R96, puzzle: Same State NG 3) | 0.11 µM
GCCAACGCAUGAGGAUAUGGCACCUUAUUGGUGCCAGAAGGUAUGUGUAUUCACAUGAGGAUCACCCAUGUAUUAUAGUUGGCA [Fiskers NG1ss - 17] (Eterna round: R96, puzzle: Same State NG 1) | 0.0537 µM
GAGUGGAGGAGAGGAUAUACAUUGAUAAUCACUGUAGAAGGUUCUAACAUGAGGAUCACCCAUGUAGGACUAUUCCUGAGAGUU [Parity 52 - Jieux - Same State NG 1] (Eterna round: R96, puzzle: Same State NG 1) | 0.00887 µM
AUUAUUUAUGCAGGAUAUGAUUAACAUGAGGAUCACCCAUGUGGUGUUGUGAGUAAGGAGAGUGAUCAGAAGGGCAUUUUUUUA [JMF's solution 56] (Eterna round: R96, puzzle: Same State NG 2) | 0.476 µM
GGUAUCGGCACAGGAUAUGCUAUCCUUUGGGUAGCAGAAGGGUGGACAUGAGGAUCACCCAUGUGGGUGCCAGGGCGUGAGCCC [JL SSNG1 1.85] (Eterna round: R96, puzzle: Same State NG 1) | 0.912 µM
AGAUCAUGACGAGGAUAUGGAACAUGAGGAUCACCCAUGUAUGUUCCAUAACGCGAAUGACGAAUCCAGAAGGCGUCGUGGUCA [JL SSNG2 1.10] (Eterna round: R96, puzzle: Same State NG 2) | 0.0156 µM
AUACAAAACACAAAUACAAACAAAUACAAACAUGAGGAUCACCCAUGUGCAAUACGACUCUUUAUGGCUGGUCUUCA [Onvete] (Eterna round: R96, puzzle: Sensor for hsa-mir-208a) | 0.0877 µM
UUCACCUUUUUUUACAUGAGGAUCACCCAUGUUUUCCCUACGUAGGAUAUCGAUGCUUGAUUGUUCGAGAAGGACGUUGUAAGU [JR_SSND3_Sub056] (Eterna round: R96, puzzle: Same State NG 3) | 0.0296 µM
GUAGCAUACCGAGGAUAUUCAUUACAUGAGGAUCACCCAUGUUUAAAUAAUAGGCGAAAGCCUUGGGAGAAGGCGGAAUGCUAC [Xeonanis - 20 Mod71] (Eterna round: R96, puzzle: Same State NG 2) | 0.0109 µM
CUCCAUUGGGUAGGAUAUCUAGGAUAUGGGAAAGACUAAGUCUGUAGGUCACCUAACCCAGAUGGAGAGAAGGACCCAACUCUC [pwkr ssNG2 2FMN + F9.41] (Eterna round: R96, puzzle: Same State NG 2) | 0.00817 µM
AUUAAGAGCGUAGGAUAUGGGAAAGGAAGUGUACCAGAAGGACGAAUACAGCGUCCGGACAUGAGGAUCACCCAUGUAGGACGG [PowerStrip SSNG 1.18] (Eterna round: R96, puzzle: Same State NG 1) | 0.0104 µM
AGACACAUGAGGAUCACCCAUGUUACGAGCUUAGCUCGGACACAGGAUAUCCGGUCCUAGAGACCGGAGAAGGGUGGCUGAAAA [Zara MOD2] (Eterna round: R96, puzzle: Same State NG 3) | 0.728 µM
AACAUGUGGUGUCACAUGAGGAUCACCCAUGUGGUAAAACCUGAGGAUAUAACGAACCAAAUCAAUUAGAAGGUAGGAUCACAA [AK SSNG3-V2-18] (Eterna round: R96, puzzle: Same State NG 3) | 0.0597 µM
